Every entry's value here was drawn from a melting point compilation (Tetko et al.).

// values below are reported melting point

CCOC(=O)c1ccc(C(=O)O)nc1C :: 88 to 90 °C
CCN(CC)C(=O)c1ccc(S(=O)(=O)Cl)cc1 :: 59 to 61 °C
O=C(Nc1cccc(O)c1)c1cccs1 :: 154 to 156 °C
Cc1nc2sccn2c1C(N)=S :: 232 to 234 °C
O=C(CCl)NCCc1ccc2c(c1)OCCO2 :: 72 to 76 °C
Nc1c(Cl)cc(Br)cc1C(=O)O :: 233 to 235 °C

For the compound shown here, "Cc1ccc(C(=O)O)cc1NS(=O)(=O)c1ccc(F)cc1" , give the reported melting point.
234 to 236 °C

For the compound shown here, "N#CCc1c[nH]c2ccc(Cl)cc12" , give the reported melting point.
104 to 106 °C

For the compound shown here, "NCC1CCN(c2ccncc2)CC1" , give the reported melting point.
72 to 74 °C

For the compound shown here, "CN(Cc1ccccc1)c1ccc([N+](=O)[O-])cn1" , give the reported melting point.
56 to 58 °C

For the compound shown here, "COc1cccc(NC(=O)C=CC(=O)O)c1" , give the reported melting point.
151 to 153 °C

For the compound shown here, "Nc1ccc(Oc2ccnc3ccccc23)cc1" , give the reported melting point.
135 to 137 °C

For the compound shown here, "COC(=O)c1cc2ccc(F)cc2s1" , give the reported melting point.
88 to 90 °C

----------
recorded.metric: melting point

Worked cases, answers included:
O=S1(=O)CCCN1c1ccc(Br)cc1F :: 89 to 91 °C
CC(C)Nc1ccc(C(=O)O)cn1 :: 249 to 251 °C
NC(=NO)C12CC3CC(CC(C3)C1)C2 :: 152 to 154 °C
Sc1nnc(C2CC2)n1Cc1ccco1 :: 260 to 262 °C

Next item in the queue.
For the molecule shown here, "NCc1cnn(-c2ccc(F)cc2F)c1" , give the reported melting point.
49 to 51 °C

----------
// values below are reported melting point

Worked cases, answers included:
O=C(c1ccc(Cl)cc1)c1ccsc1 :: 92 to 94 °C
CCn1ccnc1S :: 78 to 80 °C
Cc1cc(C(=O)O)c2c(C3CC3)noc2n1 :: 201 to 203 °C
O=C(c1ccc(S(=O)(=O)Cl)cc1)N1CCCCC1 :: 97 to 99 °C
CC(C)c1nnc(N)o1 :: 184 to 186 °C
CC(C)(C)c1cnc(S)s1 :: 115 to 117 °C
Cc1cc(C(=O)O)ccc1N1C(=O)C=CC1=O :: 203 to 205 °C
N#Cc1cc(Br)cs1 :: 47 to 49 °C

For the compound shown here, "NNC(=O)CSc1ccc(Cl)cc1" , give the reported melting point.
100 to 102 °C

For the compound shown here, CC1CSC(=S)N1 (stereo not drawn) , give the reported melting point.
94 to 96 °C

For the compound shown here, "Nc1ccnn1Cc1ccccc1" , give the reported melting point.
82 to 84 °C

For the compound shown here, "CCOC(=O)NCCC(=O)O" , give the reported melting point.
47 to 49 °C

For the compound shown here, CC(C)c1ccc(C(N)CC(=O)O)cc1 (stereo not drawn) , give the reported melting point.
234 to 236 °C

For the compound shown here, "Cc1cc(C)n(CCS(C)(=O)=O)n1" , give the reported melting point.
90 to 92 °C

For the compound shown here, "CC(C)(C)c1nc(C(=O)O)cs1" , give the reported melting point.
126 to 128 °C

For the compound shown here, "CN(C)c1ccc(S(=O)(=O)N(C)C)cc1N" , give the reported melting point.
143 to 145 °C

For the compound shown here, "CCN(CC)S(=O)(=O)c1cc(N)ccc1C" , give the reported melting point.
166 to 169 °C

For the compound shown here, "Nc1ccccc1C(=O)NCc1ccccc1" , give the reported melting point.
125 to 127 °C

For the compound shown here, "O=C(O)c1sc(-c2ccccc2)cc1OCC(=O)N1CCCCC1" , give the reported melting point.
164 to 166 °C
